# System: Malme-3M
# Test Details: NCI tumour cell line growth inhibition, 48 h
Activity calls are given as the source filed them. Rule as the data show it: active = GI50 up to about 1.1 µM and inactive = higher.
A correct response names exactly one class from True (active), False (inactive)

Recorded results for 3 molecules are shown here.
Which outcome did this test record for the molecule CN(C)C=C1C(Cl)=C(C=O)CC(C=O)=C1Cl ?
False

Which outcome did this test record for the molecule CC(C)(Cl)C(Br)CCC(C)(Cl)C(Br)CBr (stereo not given) ?
False

Which outcome did this test record for the molecule CC[P+]1(CC)CCCC1 ?
False

Further cases:
Which outcome did this test record for the molecule Nc1nn2c(C(Br)Br)cc(C(Br)Br)nc2c1[N+](=O)[O-] ?
True

Which outcome did this test record for the molecule O=c1cc(-c2ccccc2)nc(-n2[nH]c3c(c2=O)CCCC3)[nH]1 ?
False

###

# Tested on: KM-20L2
# Test Details: NCI tumour cell line growth inhibition, 48 h
The source made the active and inactive calls. No stated cut-off is given here; in the data, active = GI50 up to about 1.1 µM and inactive = higher.
Measured GI50 of individual entries

Reported GI50 of Oc1c(-c2ccccc2)nc2ccccn12 : > 100 µM (inactive)

Reported GI50 of O=C1C2=C(C3=NCCc4c[nH]c1c43)c1c(cc(Br)c(O)c1Br)CCN2 : 5.07 µM (inactive)

Further cases:
Reported GI50 of CC(C)c1ccc(/C=C/c2cc(C(=O)NNC(=O)NC3CCCCC3)nc(S)n2)cc1 : > 100 µM (inactive)

Reported GI50 of CC1=CC2C(C=C1)S(=O)(=O)N1CC21c1ccccc1 (stereo not drawn) : > 100 µM (inactive)

Reported GI50 of Oc1ccc(Br)cc1/C=N/c1ccc(/N=C/c2cc(Br)ccc2O)cc1 : > 100 µM (inactive)

Reported GI50 of C/C=C/C[C@@H](C)[C@@H](O)[C@H]1C(=O)N[C@@H](CC)C(=O)N(C)CC(=O)N(C)[C@@H](CC(C)C)C(=O)N[C@@H](C(C)C)C(=O)N(C)[C@@H](CC(C)C)C(=O)N[C@@H](C)C(=O)N[C@H](C)C(=O)N(C)[C@@H](CC(C)C)C(=O)N(C)[C@@H](CC(C)C)C(=O)N(C)[C@@H](C(C)C)C(=O)N1C : 2.97 µM (inactive)

Reported GI50 of CNC(=S)/N=C(\N)N(C)C : > 100 µM (inactive)

Reported GI50 of C[n+]1cn(CC(=O)c2ccccc2)c(C(N)=O)c1N : > 100 µM (inactive)

###

# Tested on: SK-MEL-2
# Test Details: NCI tumour cell line growth inhibition, 48 h
Activity calls are given as the source filed them. Cut-off read from the data, not from the text of the source: active = GI50 up to about 1.1 µM and inactive = higher.
Measurement Kind: GI50

Reported GI50 of CC(C)(C)C1CCC2c3c([nH]c4ccccc34)C3C(=O)N(c4cccc(Cl)c4)C(=O)C3C2C1 (stereo unspecified) : 17 µM (inactive)

Reported GI50 of COc1cc([C@@H]2c3cc4c(c(O)c3C[C@H]3COC(=O)[C@@H]32)OCO4)cc(OC)c1O : 0.027 µM (active)

Reported GI50 of O=c1ccn([C@@H]2C=C(CO)[C@@H](O)[C@H]2O)c(=O)[nH]1 : > 625 µM (inactive)

Reported GI50 of CCOC(=N)CC(=O)Nc1cccc(C)c1C : > 100 µM (inactive)

Reported GI50 of O=C1Nc2cccc3ncn(c23)C2=C1CCCC2 : > 100 µM (inactive)

Reported GI50 of CC1(N2CCOCC2)CC2C(=[N+]1[O-])CCC/C2=N/O (stereo unspecified) : > 100 µM (inactive)

Reported GI50 of O=C1C=CC(=O)C12CCc1ccccc12 : > 100 µM (inactive)

Reported GI50 of Cc1ccccc1C(=O)c1cc(O)ccc1O : 34.6 µM (inactive)

Further cases:
Reported GI50 of NC12CC3C4CC5(N)CC3C(C1)C(C5)C4C2 : > 100 µM (inactive)

Reported GI50 of COc1ccc(N2C(=O)/C(=C(\C)c3cc4ccccc4oc3=O)N=C2c2cc([N+](=O)[O-])ccc2Cl)cc1 : 61 µM (inactive)

Reported GI50 of Clc1ccc2oc(CCc3ccccc3)nc2c1 : 30.6 µM (inactive)
